- Test system: Bacillus subtilis ATCC 6 633
- TEST PROTOCOL: MIC, dilution in liquid medium
- Type: cell-based
- EXPERIMENTAL CONDITIONS: 24 H
READOUT NAME: M.I.C. (µg/mL)
Numbers only, in µg/mL.

> print(dat)
                                   molecule  reading
1  CCO/N=C(/C(=O)NC1C(=O)N2C(C(=O)O)=C(COC(C)=O)CSC12)c1csc(N)n1 (stereo not shown)       20

Let's switch to this molecule now.
So for CO/N=C(\C(=O)N[C@@H]1C(=O)N2C(C(=O)O)=C(COC(C)=O)CS[C@H]12)c1csc(N)n1 [Example 7] , the logged M.I.C. turned out to be 1

---

- Test system: Streptococcus pyogenes A 561
- TEST PROTOCOL: MIC, dilution in liquid medium
- Assay type: cell-based
- EXPERIMENTAL CONDITIONS: Streptococcus pyogenes, A561, 24 h, 24 H; read-out: M.I.C.
READOUT NAME: MIC
Write the numeric value and append its unit.

Please review the entries below; each comes with its answer.
> print(dat)
                                   molecule  readout.name     reading
1  CC(=O)OCC1=C(C(=O)O)N2C(=O)[C@@H](NC(=O)/C(=N/O)c3csc(N)n3)[C@H]2SC1           MIC   0.5 µg/mL
2  CCO/N=C(\C(=O)N[C@@H]1C(=O)N2C(C(=O)O)=C(COC(C)=O)CS[C@H]12)c1csc(N)n1 [Example 11]           MIC  0.02 µg/mL

Let's switch to this molecule now.
So for C=CCO/N=C(\C(=O)N[C@@H]1C(=O)N2C(C(=O)O)=C(COC(C)=O)CS[C@H]12)c1csc(N)n1 [Example 9] , the logged MIC turned out to be 0.02 µg/mL

---

Task for the reader: assign each of the following compounds its reported MIC.
- Test system: Providencia Du 48
- TEST PROTOCOL: MIC, dilution in liquid medium
- Format: cell-based
- EXPERIMENTAL CONDITIONS: Providencia, DU48, 48 h, 48 H
Give bare numbers, in µg/mL.

Please review the entries below; each comes with its answer.
> print(dat)
                                   compound  reading
1  CC(=O)OCC1=C(C(=O)O)N2C(=O)C(NC(=O)/C(=N\O)c3csc(N)n3)C2SC1 (centres unmarked)        2
2  C=CO/N=C(\C(=O)NC1C(=O)N2C(C(=O)O)=C(COC(C)=O)CSC12)c1csc(N)n1 (centres unmarked)        2
3  C=CCO/N=C(\C(=O)N[C@@H]1C(=O)N2C(C(=O)O)=C(COC(C)=O)CS[C@H]12)c1csc(N)n1        5

Let's switch to this compound now.
So for CCO/N=C(\C(=O)N[C@@H]1C(=O)N2C(C(=O)O)=C(COC(C)=O)CS[C@H]12)c1csc(N)n1 , the logged MIC turned out to be 5

---

- Test system: Bacillus subtilis ATCC 6 633
- TEST PROTOCOL: MIC, dilution in liquid medium
- Assay type: cell-based
- EXPERIMENTAL CONDITIONS: Bacillus subtilis, ATCC6, 48 h, 48 H
READOUT NAME: MIC (µg/mL)
Answers are plain numbers, in µg/mL.

Provide each entry's MIC from the list below.
1. CC(=O)OCC1=C(C(=O)O)N2C(=O)C(NC(=O)/C(=N\O)c3csc(N)n3)C2SC1 (centres unmarked)
2. CO/N=C(/C(=O)NC1C(=O)N2C(C(=O)O)=C(COC(C)=O)CSC12)c1csc(N)n1 (centres unmarked)
3. CC(=O)OCC1=C(C(=O)O)N2C(=O)[C@@H](NC(=O)/C(=N/O)c3csc(N)n3)[C@H]2SC1
4. C=CO/N=C(\C(=O)NC1C(=O)N2C(C(=O)O)=C(COC(C)=O)CSC12)c1csc(N)n1 (centres unmarked)
5. C=CCO/N=C(\C(=O)N[C@@H]1C(=O)N2C(C(=O)O)=C(COC(C)=O)CS[C@H]12)c1csc(N)n1

[1, 20, 5, 5, 1]
